conditions: 7 Days at 37°C, 1.0 mg/mL in water
MEASURED_PARAMETER: Forced degradation Δ Purity (%)
Answers are plain numbers, in %.

Consider the following items and state reported Forced degradation Δ Purity for each.
1. C=C1NC(=O)[C@H](Cc2c[nH]c3ccccc23)NC(=O)[C@H](NC(=O)[C@H](CCCCN)NC(=O)[C@@H](N)CC(C)C)CSC[C@@H](C(=O)N[C@H]2C(=O)N3CCC[C@H]3C(=O)NCC(=O)N[C@H](C(=O)N[C@@H](C)C(=O)N[C@@H](C)C(=O)N/C(=C\C)C(=O)NCC(=O)N[C@@H]3CSC[C@@H]4NC(=O)[C@H](Cc5ccc(O)cc5)NC(=O)[C@@H](CS/C=C\NC4=O)NC(=O)[C@H](CC(N)=O)NC(=O)[C@H](Cc4ccccc4)NC3=O)CS[C@H]2C)NC(=O)[C@H](CC(C)C)NC1=O
2. C=C1NC(=O)[C@H](Cc2c[nH]c3ccccc23)NC(=O)[C@H](NC(=O)[C@H](CCCCN)NC(=O)[C@@H](N)[C@@H](C)CC)CSC[C@@H](C(=O)N[C@H]2C(=O)N3CCC[C@H]3C(=O)NCC(=O)N[C@H](C(=O)N[C@@H](C)C(=O)N[C@@H](C)C(=O)N/C(=C\C)C(=O)NCC(=O)N[C@@H]3CSC[C@@H]4NC(=O)[C@H](Cc5ccc(O)cc5)NC(=O)[C@@H](CS/C=C\NC4=O)NC(=O)[C@H](CC(N)=O)NC(=O)[C@H](Cc4ccccc4)NC3=O)CS[C@H]2C)NC(=O)[C@H](CC(C)C)NC1=O

1. -0.56
2. -0.63

====

system: C. difficile; experiment: microbe, parasite or virus in culture; assay type: cell-based, Clostridium difficile
MEASURED_PARAMETER: MIC Mode (µg/mL)
Give bare numbers, in µg/mL.

C=C1NC(=O)[C@H](Cc2c[nH]c3ccccc23)NC(=O)[C@H](NC(=O)[C@H](CCCCN)NC(=O)[C@@H](N)C(C)C)CSC[C@@H](C(=O)N[C@H]2C(=O)N3CCC[C@H]3C(=O)NCC(=O)N[C@H](C(=O)N[C@@H](C)C(=O)N[C@@H](CC(N)=O)C(=O)N/C(=C\C)C(=O)NCC(=O)N[C@@H]3CSC[C@@H]4NC(=O)[C@H](Cc5ccc(O)cc5)NC(=O)[C@@H](CS/C=C\NC4=O)NC(=O)[C@H](CC(N)=O)NC(=O)[C@H](Cc4ccccc4)NC3=O)CS[C@H]2C)NC(=O)[C@H](CC(C)C)NC1=O [OG716]    0.5
C=C1NC(=O)[C@H](Cc2c[nH]c3ccccc23)NC(=O)[C@H](NC(=O)[C@H](CCCCN)NC(=O)[C@@H](N)CC(C)C)CSC[C@@H](C(=O)N[C@H]2C(=O)N3CCC[C@H]3C(=O)NCC(=O)N[C@H](C(=O)N[C@@H](C)C(=O)N[C@@H](CC(N)=O)C(=O)N/C(=C\C)C(=O)NCC(=O)N[C@@H]3CSC[C@@H]4NC(=O)[C@H](Cc5ccc(O)cc5)NC(=O)[C@@H](CS/C=C\NC4=O)NC(=O)[C@H](CC(N)=O)NC(=O)[C@H](Cc4ccccc4)NC3=O)CS[C@H]2C)NC(=O)[C@H](CC(C)C)NC1=O [OG712]    0.25

# input for lookup
What value of MIC Mode has been reported for the following compound? C=C1NC(=O)[C@H](Cc2c[nH]c3ccccc23)NC(=O)[C@H](NC(=O)[C@H](CCCCN)NC(=O)[C@@H](N)[C@@H](C)CC)CSC[C@@H](C(=O)N[C@H]2C(=O)N3CCC[C@H]3C(=O)NCC(=O)N[C@H](C(=O)N[C@@H](C)C(=O)N[C@@H](CC(N)=O)C(=O)N/C(=C\C)C(=O)NCC(=O)N[C@@H]3CSC[C@@H]4NC(=O)[C@H](Cc5ccccc5)NC(=O)[C@@H](CS/C=C\NC4=O)NC(=O)[C@H](CC(N)=O)NC(=O)[C@H](Cc4ccccc4)NC3=O)CS[C@H]2C)NC(=O)[C@H](CC(C)C)NC1=O [OG718]
0.5
